testedSystem: human 5-HT2A receptor (Homo sapiens (Human), UniProt P28223)
Sequence (P28223 whole entry): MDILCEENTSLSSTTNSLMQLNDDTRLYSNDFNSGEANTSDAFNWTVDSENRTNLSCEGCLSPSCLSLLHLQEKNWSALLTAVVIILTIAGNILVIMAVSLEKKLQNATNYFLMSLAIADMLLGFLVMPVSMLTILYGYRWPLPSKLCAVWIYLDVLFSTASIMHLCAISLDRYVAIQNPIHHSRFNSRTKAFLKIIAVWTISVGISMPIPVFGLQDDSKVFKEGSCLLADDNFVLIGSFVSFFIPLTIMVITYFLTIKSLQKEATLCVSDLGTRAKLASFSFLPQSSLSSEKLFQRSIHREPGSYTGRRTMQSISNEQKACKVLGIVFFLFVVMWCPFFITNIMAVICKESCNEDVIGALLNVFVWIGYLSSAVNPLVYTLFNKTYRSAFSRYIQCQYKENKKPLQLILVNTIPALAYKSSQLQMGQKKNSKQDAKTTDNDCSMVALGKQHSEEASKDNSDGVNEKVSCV
assayExplanation: Radioligand binding ([3H]-ketanserin) to human 5-HT2A receptor, HEK293 EBNA membranes
details: HEK293 EBNA cells expressing human 5-HT2A receptor
Each record's Ki is compared with 1: < 7 nM; 2: ≥ 7 nM and < 10 nM; 3: ≥ 10 nM to give its class.

Solved entries (count: 8):
>>> class("CC(C)CC(=O)N[C@H]1CC[C@H](CCN2CCC(c3coc4ccccc34)CC2)CC1")
2
>>> class("Cc1nc(-c2ccc(C(=O)N[C@H]3CC[C@H](CCN4CCC(c5coc6ccccc56)CC4)CC3)cc2)no1")
3
>>> class("C/C=C/CC(=O)N[C@H]1CC[C@H](CCN2CCC(c3coc4ccccc34)CC2)CC1")
3
>>> class("O=C(CC1COC1)N[C@H]1CC[C@H](CCN2CCC(c3coc4ccccc34)CC2)CC1")
1
>>> class("CC(C)=CC(=O)N[C@H]1CC[C@H](CCN2CCC(c3coc4ccccc34)CC2)CC1")
2
>>> class("CN1CCN(c2ccc(C(=O)N[C@H]3CC[C@H](CCN4CCC(c5coc6ccccc56)CC4)CC3)cc2)CC1")
2
>>> class("O=C(N[C@H]1CC[C@H](CCN2CCC(c3coc4ccccc34)CC2)CC1)c1ccc(Cl)cc1Cl")
3
>>> class("O=C(N[C@H]1CC[C@H](CCN2CCC(c3coc4ccccc34)CC2)CC1)c1ccccc1")
1

Ask: Band for "COCCC(=O)N[C@H]1CC[C@H](CCN2CCC(c3coc4ccccc34)CC2)CC1" ?
Result: 1

Ask: Band for O=C(N[C@H]1CC[C@H](CCN2CCC(c3coc4ccccc34)CC2)CC1)C1CCCOC1 (stereo partly shown) ?
Result: 1

Ask: Band for O=C(N[C@H]1CC[C@H](CCN2CCC(c3coc4ccccc34)CC2)CC1)C1CC1(F)F (stereo partly shown) ?
Result: 2

Ask: Band for "O=C(N[C@H]1CC[C@H](CCN2CCC(c3coc4ccccc34)CC2)CC1)C12CC3CC(CC(C3)C1)C2" ?
Result: 3
